- assayInfo: Tanguay_ZF_120hpf_SOMI_legacy: (Legacy) Oregon State University Tanguay Lab 120 Hour Post-fertilization zebrafish Assay for Somite Malformation (AID 2283647)
Records with an inconclusive call do not appear. Calls of active or inactive are those of the source. How the source made its calls: active means hit-call score of the fitted dose curve at least 0.9, where 1 is the maximum; inconclusive means response in the unintended direction; inactive means score below 0.9.
propertyName: AC50

Guide cases for AC50, answers given:
CCCCCCCCOC(=O)c1ccc(C(=O)OCCCCCCCC)c(C(=O)OCCCCCCCC)c1
inactive
Nc1ccc([N+](=O)[O-])cc1
inactive
CCC12COCN1COC2
inactive
CC(C)COC(=O)c1ccccc1C(=O)OCC(C)C
50.6 µM (active)
Nc1ccc(Cc2ccc(N)cc2)cc1
inactive

Report AC50 for each item below.
1. N#CC(Br)(Br)C(N)=O
2. c1ccc(NNc2ccccc2)cc1
3. CC(C)(C)C(O)(CCc1ccc(Cl)cc1)Cn1cncn1 (centres undefined)
4. O=[N+]([O-])C(Br)(CO)CO
5. CCCCCOC(=O)c1ccccc1C(=O)OCCCCC

RESULT:
["inactive", "inactive", "inactive", "inactive", "inactive"]

Answer for every listed entry: what is its AC50? The entries follow.
1. [Cl-].[Cl-].[Hg+2]
2. CCCCOC(=O)c1ccccc1C(=O)OCc1ccccc1
3. O=Cc1ccco1
4. Oc1ccc2ccc3cccc4ccc1c2c34

RESULT:
1: 3.87 µM (active); 2: inactive; 3: inactive; 4: 18.4 µM (active)

* * *

- Read-out: Tumor necrosis factor receptor superfamily member 6 (Homo sapiens) (UniProt P25445)
- assayInfo: LTEA_HepaRG_FAS: Life Technologies and Expression Analysis (LTEA) Assay for Fas cell surface death receptor (FAS) using HepaRG (AID 2283447)
- reportedConditions: mRNA level, 48 h; actives raise or lower the signal
Calls of active or inactive are those of the source. Rule for the calls: active = hit-call score of the fitted dose curve at least 0.9, where 1 is the maximum; inactive = score below 0.9.
Answer with one of the outcomes active, inactive

QUERY: // param item: Cn1cc(-c2ccccc2)c(=O)c(-c2cccc(C(F)(F)F)c2)c1 ; yields the recorded call
RESULT: inactive

QUERY: // query: COc1cc(C=O)cc2c1[C@H](COC(N)=O)[C@]1(OC(C)=O)ON2C[C@H]2[C@@H]1N2C(C)=O
RESULT: active

QUERY: What do you get for C[N+](C)(C)CC1CO1 (stereo unspecified) ?
RESULT: inactive

QUERY: And for CC(C)N(Cc1ccccc1)C(=O)C(C)(C)C ?
RESULT: inactive

QUERY: Also check OCCOCCO
RESULT: inactive

QUERY: Field entry: CN(C)C(=O)Nc1ccc(Cl)cc1
RESULT: inactive

* * *

- Read-out: E-selectin (Homo sapiens)
- assayInfo: BSK_3C_Eselectin: BioMAP Diversity Plus: 3C Assay for Eselectin Biomarker Activity (AID 2283015);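 on outcome: cell surface E-selectin protein quantified by ELISA 24 h after dosing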
- reportedConditions: primary human endothelial cells (HUVEC); actives raise or lower the signal
Active and inactive are the calls of the source. Rule for the calls: active = hit-call score of the fitted dose curve at least 0.9, where 1 is the maximum; inactive = score below 0.9.
Your response should consist of one outcome taken from label 1 = active, label 0 = inactive

Examples with answers:
CC(C)(OOC(C)(C)c1ccccc1)c1ccccc1
label 1
Cc1cccc(N)c1N
label 1
c1ccc(C2CO2)cc1 (stereo not drawn)
label 0
CCCCCOC(=O)c1ccccc1C(=O)OCCCCC
label 0
c1ccc2c(c1)-c1cccc3cccc-2c13
label 0
CN(C)c1ccccc1
label 0
Cc1ccc(N)cc1
label 0
O=C(N[C@H](c1ccccc1)[C@@H]1CN2CCC1CC2)c1c(Cl)ccc(C(F)(F)F)c1Cl
label 0

Please turn your attention to the following entry.
QUERY: Call for entry COP(=S)(OC)SCN1C(=O)c2ccccc2C1=O :
RESULT: label 0

* * *

- Read-out: Ezrin (EZR), EZR (gene 7430)
- assayInfo: LTEA_HepaRG_EZR: Life Technologies and Expression Analysis (LTEA) Assay for Ezrin (EZR) using HepaRG (AID 2283491)
- reportedConditions: mRNA level, 48 h; actives raise or lower the signal
The source made the active and inactive calls. Rule for the calls: active = hit-call score of the fitted dose curve at least 0.9, where 1 is the maximum; inactive = score below 0.9.
Write down the outcome that applies. Available outcomes: active, inactive

Use these answered entries as a reference point.
CCN(CC)N=O
inactive
CN(C)[C@@H]1C(=O)C(C(N)=O)=C(O)[C@@]2(O)C(=O)C3=C(O)c4c(O)cccc4[C@@](C)(O)[C@H]3C[C@@H]12
inactive
CC(O)CCO (centres undefined)
inactive
O=C(N[C@H](c1ccccc1)[C@@H]1CN2CCC1CC2)c1c(Cl)ccc(C(F)(F)F)c1Cl
active
CCCCCOC(=O)c1ccccc1C(=O)OCCCCC
inactive
CC(C)COC(=O)c1ccccc1C(=O)OCC(C)C
inactive

QUERY: Test call for this compound, please: CC(C)(O)c1cnn2c(-c3ccc(F)c(-c4c(F)cccc4C#N)c3)cnc2n1
RESULT: inactive

QUERY: Do the same for COC(=O)c1ccccc1N please
RESULT: inactive

QUERY: Try this compound too: CN(C)C(=O)Nc1ccc(Cl)cc1
RESULT: inactive

QUERY: Also, COP(=S)(OC)SCN1C(=O)c2ccccc2C1=O please.
RESULT: inactive

QUERY: Now give it for ClC1=C(Cl)[C@]2(Cl)[C@H]3[C@H]([C@@H]4C=C[C@H]3C4)[C@@]1(Cl)C2(Cl)Cl too.
RESULT: inactive

QUERY: Now the same for Nc1ccc(N=Nc2ccccc2)cc1
RESULT: inactive

QUERY: Okay, and Nc1ccc(Cl)cc1N ?
RESULT: inactive

QUERY: And what about the compound c1ccc2c(c1)oc1ccccc12 ?
RESULT: inactive

QUERY: And Nc1cc(Cl)cc(C(=O)O)c1Cl ?
RESULT: inactive

QUERY: Now consider O=C(O)C1C2CCC(O2)C1C(=O)O (centres undefined) and answer again.
RESULT: active

QUERY: // repeat for N#CC(Br)Br and report
RESULT: inactive

QUERY: What do you get for OCCCBr ?
RESULT: inactive

QUERY: Cool, now COC(=O)Nc1nc2ccccc2[nH]1
RESULT: inactive

* * *

- assayInfo: CCTE_Simmons_MITO_max_resp_rate: CCTE's HepG2 Seahorse XF Respirometric Screening Assay at Maximal Respiratory State [uncoupled], Simmons Lab (AID 2284002)
- reportedConditions: actives raise or lower the signal
- Protocol: CCTE_Simmons_MITO is cell-based, respirometric assay using HepG2 cells and a Seahorse XF Analyzer to measure oxygen consumption rates over four temporal phases spanning a total of 72 minutes: pre-injection (pre-treatment), basal (following test compound injection), maximal (following FCCP uncoupler injection), and inhibited (following rotenone/antimycin A injection)CCTE_Simmons_MITO_max_resp_rate is one of 4 assay components calculated from the CCTE_Simmons_MITO assay. […]
Active and inactive are the calls of the source. How the source made its calls: active means hit-call score of the fitted dose curve at least 0.9, where 1 is the maximum; inactive means score below 0.9.
propertyName: AC50

COc1cc(C=O)cc2c1[C@H](COC(N)=O)[C@]1(OC(C)=O)ON2C[C@H]2[C@@H]1N2C(C)=O
inactive
CC(C)(C)C(O)(CCc1ccc(Cl)cc1)Cn1cncn1 (stereo not given)
33.4 µM (active)
CCCCCCCCn1sccc1=O
52 µM (active)
CCC[CH2][Sn]([Cl])([CH2]CCC)[CH2]CCC
3.2 µM (active)

Could you now look at the following compound, please?
QUERY: Bench note: what AC50 did CCC(C)c1ccc(O)cc1 (stereo not given) show?
RESULT: inactive

* * *

- Read-out: BCL2L11 (gene 10018)
- assayInfo: LTEA_HepaRG_BCL2L11: Life Technologies and Expression Analysis (LTEA) Assay for Bcl-2 (BCL2L11) gene using HepaRG (AID 2283473)
- reportedConditions: mRNA level, 48 h; actives raise or lower the signal
Active and inactive are the calls of the source. Rule for the calls: active = hit-call score of the fitted dose curve at least 0.9, where 1 is the maximum; inactive = score below 0.9.
propertyName: outcome

A selection of reference data follows.
CCC(C)c1ccc(O)cc1 (configuration not stated)
inactive
c1ccc(C2CO2)cc1 (configuration not stated)
inactive
O=Cc1ccco1
inactive
O=C(Oc1ccc(Br)cc1)N1CCN2CCC1CC2
inactive
CCCCCCCCOC(=O)c1ccc(C(=O)OCCCCCCCC)c(C(=O)OCCCCCCCC)c1
inactive

For every item in the list below, what is its measured outcome?
1. CS(=O)(=O)NC(=O)c1cc(Oc2ccc(C(F)(F)F)cc2Cl)ccc1[N+](=O)[O-]
2. C1=Cc2cccc3cccc1c23

RESULT:
1: inactive; 2: inactive

* * *

- assayInfo: TOX21_p53_BLA_p5_viability: Viability Assessment in the Tox21 HCT-116 p53 Agonism Beta-lactamase Assay, Phase 5 (AID 2283600)
Results filed as inconclusive are left out. Calls of active or inactive are those of the source. How the source made its calls: active means hit-call score of the fitted dose curve at least 0.9, where 1 is the maximum; inconclusive means response in the unintended direction; inactive means score below 0.9.
Pick from 1 (active), 0 (inactive) when you respond.

# count of solved cases: 6
Nc1cc(Cl)cc(C(=O)O)c1Cl
0
CS(=O)(=O)NC(=O)c1cc(Oc2ccc(C(F)(F)F)cc2Cl)ccc1[N+](=O)[O-]
0
CCC(C)c1ccc(O)cc1 (configuration not stated)
0
Nc1ccc(Cl)cc1N
0
CNC(=O)Oc1cccc2c1OC(C)(C)C2
0
CCC[CH2][Sn]([Cl])([CH2]CCC)[CH2]CCC
1

QUERY: Short answer needed: outcome of this test for O=[N+]([O-])c1ccc(Oc2ccc(Cl)cc2Cl)cc1 ?
RESULT: 0

QUERY: Same question for ClCCOCCCl please.
RESULT: 0

QUERY: Same read-out for CCCCOC(=O)c1ccccc1C(=O)OCc1ccccc1 ?
RESULT: 0

QUERY: Also check Nc1ccc(Cc2ccc(N)cc2)cc1
RESULT: 0

QUERY: How about Brc1ccc(Oc2ccccc2)cc1 ?
RESULT: 0

QUERY: // query: c1ccc2c(c1)oc1ccccc12
RESULT: 0

QUERY: What about CCC12COCN1COC2 ?
RESULT: 0

QUERY: Another molecule to check: Cc1ccc(N=C=O)cc1N=C=O
RESULT: 0
